Provenance of the data: paper PMC6278537

Some molecules, each annotated with its measured Stability Long-Term.
# ASSAY_REMARKS: Stability of analytes in rat plasma under various storage conditions
# Format: in vitro ADME
# RUN_PARAMETERS: rat plasma, storage for 2 weeks, low QC spiked concentration
READOUT_LABEL: Stability Long-Term (% RE)

>>> reported("CC1=C2C3=CCC4C5(C)CCC(OC6OCC(O)C(O)C6O)C(C)(C)C5CCC4(C)C3(C)CCC2(C(=O)OC2OC(CO)C(O)C(O)C2O)CCC1C (stereo not drawn)")
3.75
>>> reported("CC1CCC2(C(=O)OC3OC(CO)C(O)C(O)C3O)CCC3(C)C(=CCC4C5(C)CCC(O)C(C)(C)C5CCC43C)C2C1(C)O (stereo not drawn)")
"−3.19"
>>> reported("C[C@@H]1CC[C@]2(C(=O)O[C@@H]3O[C@H](CO)[C@@H](O)[C@H](O)[C@H]3O)CC[C@]3(C)C(=CC[C@@H]4[C@@]5(C)CC[C@H](O[C@@H]6OC[C@H](O)[C@H](O)[C@H]6O)C(C)(C)[C@@H]5CC[C@]43C)[C@@H]2[C@]1(C)O [I, ziyuglycoside I]")
2.43
>>> reported("C[C@@H]1CC[C@]2(C(=O)O[C@@H]3O[C@H](CO)[C@@H](O)[C@H](O)[C@H]3O)CC[C@]3(C)C(=CC[C@@H]4[C@@]5(C)C[C@@H](O)[C@H](O)C(C)(C)[C@@H]5CC[C@]43C)[C@@H]2[C@]1(C)O")
4.88
>>> reported("C=C1[C@H]2C3=CC[C@@H]4[C@@]5(C)C[C@@H](O)[C@@H](O)C(C)(C)[C@@H]5CC[C@@]4(C)[C@]3(C)CC[C@@]2(C(=O)O[C@@H]2O[C@H](CO)[C@@H](O)[C@H](O)[C@H]2O)CC[C@H]1C [VI, alpinoside]")
"−2.07"
>>> reported("CC1CCC2(C(=O)O)CCC3(C)C(=CCC4C5(C)C(O)C(O)C(O)C(C)(C)C5CCC43C)C2C1(C)O (stereo not drawn) [V, 1β-hydroxyeuscaphic acid]")
9.86
